# TESTED_ON: C-domain of MALT1 (amino acids 329-824) (Homo sapiens, UniProt Q9UDY8)
# Sequence (Q9UDY8 329-824): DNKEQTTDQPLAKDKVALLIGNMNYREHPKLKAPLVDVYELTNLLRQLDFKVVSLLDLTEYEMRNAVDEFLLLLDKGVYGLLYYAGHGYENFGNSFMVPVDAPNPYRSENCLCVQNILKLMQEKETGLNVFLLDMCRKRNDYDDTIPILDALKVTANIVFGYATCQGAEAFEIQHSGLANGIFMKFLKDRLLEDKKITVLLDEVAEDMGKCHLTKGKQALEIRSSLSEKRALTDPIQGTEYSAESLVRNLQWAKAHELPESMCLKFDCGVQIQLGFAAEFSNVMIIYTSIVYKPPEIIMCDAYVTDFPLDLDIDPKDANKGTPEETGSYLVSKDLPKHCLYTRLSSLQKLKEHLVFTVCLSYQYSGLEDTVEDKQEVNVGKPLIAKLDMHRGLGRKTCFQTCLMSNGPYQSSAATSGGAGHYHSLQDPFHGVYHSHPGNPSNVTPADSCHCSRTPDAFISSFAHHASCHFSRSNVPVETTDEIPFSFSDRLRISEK
# METHOD_DESCRIPTION: MALT1 Biochemical Assay - Version 1 (fluorescence lifetime)
RESULT_TYPE: IC50

CO[C@@H](C)c1c(NC(=O)Nc2cc(Cl)nc(C(=O)N(C)C)c2)cnc2cc(Cl)nn12	13 nM
C[C@H](O)c1c(NC(=O)Nc2ccnc(C(F)F)c2)cnc2cc(F)nn12	11 nM
CO[C@H](c1c(NC(=O)Nc2cnc(-n3nccn3)c(C#N)c2)cnc2cc(C)nn12)C(C)C	9 nM
COCC1(c2c(NC(=O)Nc3ccnc(C#N)c3)cnc3cc(Cl)nn23)CC1	25 nM
CO[C@@H](C)c1c(NC(=O)Nc2cnc(-n3nccn3)c(C#N)c2)cnc2cc(Cl)nn12	2 nM
CO[C@@H](C)c1c(NC(=O)Nc2cncc(C(F)(F)F)c2)cnc2cc(F)nn12	7 nM
CC(=O)N1CC[C@@H](O[C@@H](C)c2c(NC(=O)Nc3cnc(-n4nccn4)c(Cl)c3)cnc3cc(Cl)nn23)C1	23 nM
COc1ncc(NC(=O)Nc2cnc3cc(Cl)nn3c2[C@H](C)OC)cc1C#N	3 nM
COc1ncc(NC(=O)Nc2cnc3cc(F)nn3c2[C@H](C)OC)cc1C#N	4 nM
CO[C@@H](C)c1c(NC(=O)Nc2cnc(C(=O)N3CCCC3)c(Cl)c2)cnc2cc(Cl)nn12	11 nM
COc1ncc(NC(=O)Nc2cnc3cc(C)nn3c2[C@@H](OC)C(C)C)cc1C#N	7 nM
C[C@H](N)c1c(NC(=O)Nc2cnc(-n3nccn3)c(Cl)c2)cnc2cc(Cl)nn12	24 nM
CO[C@@H](C)c1c(NC(=O)Nc2cnc(C(=O)N(C)C)c(Cl)c2)cnc2cc(Cl)nn12	12 nM
COCCO[C@@H](C)c1c(NC(=O)Nc2cnc(-n3nccn3)c(C(F)(F)F)c2)cnc2cc(Cl)nn12	7 nM
CNC(=O)c1ncc(NC(=O)Nc2cnc3cc(Cl)nn3c2[C@H](C)OC)cc1Cl	7 nM
